target: human CB2 receptors (Homo sapiens, UniProt P34972); construct: expressed in transfected cells; host or cells: HEK293; test: human CB2 radioligand binding assay ([3H]CP 55,940 competition); conditions: HEK293 membranes, 0.5 nM [3H]CP 55,940; read-out: human CB2 (Ki)
Sequence (P34972 whole entry): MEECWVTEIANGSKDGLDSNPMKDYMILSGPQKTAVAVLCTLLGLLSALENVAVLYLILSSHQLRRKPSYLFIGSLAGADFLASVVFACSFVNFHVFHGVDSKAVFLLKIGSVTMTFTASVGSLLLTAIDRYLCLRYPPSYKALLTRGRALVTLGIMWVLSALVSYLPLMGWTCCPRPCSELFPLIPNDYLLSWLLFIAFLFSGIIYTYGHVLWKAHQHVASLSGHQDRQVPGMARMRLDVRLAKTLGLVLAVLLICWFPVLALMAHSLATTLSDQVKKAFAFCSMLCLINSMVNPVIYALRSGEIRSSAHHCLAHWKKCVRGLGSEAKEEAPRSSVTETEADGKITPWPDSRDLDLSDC
Readout Label: Ki (nM)
Number in nM, nothing else.

Consider the following illustrative entries.
{"Compound": "CN1CCC[C@H]1COc1ccc(C(F)(F)F)cc1C(=O)/N=C1\\OC(C(C)(C)C)CN1C[C@H]1CCCO1 (stereo partly shown) [Example 73]", "Units Text": "nM", "Ki": 291}
{"Compound": "Cn1c(C(C)(C)C)c/c(=N\\C(=O)c2cc(C(F)(F)F)ccc2OCC2CN(S(C)(=O)=O)C2)n1C[C@H]1CCCO1 [Example 54]", "Units Text": "nM", "Ki": 192}
{"Compound": "COC(=O)c1ccc(OCC(C)(C)O)c(C(=O)/N=c2\\cc(C(C)(C)C)n(C)n2C[C@H]2CCCO2)c1 [Example 132]", "Units Text": "nM", "Ki": 127}
{"Compound": "Cn1c(C(C)(C)C)c/c(=N\\C(=O)c2cc(C(F)(F)F)ccc2OCC(C)(C)C(=O)O)n1C[C@H]1CCCO1 [Example 124]", "Units Text": "nM", "Ki": 185}

Task item: Bench note: what Ki did CSC(C)(C)COc1ccc(C(F)(F)F)cc1C(=O)/N=c1\cc(C(C)(C)C)n(C)n1C[C@H]1CCCO1 [Example 64] show?
Reply: 328

* * *

target: human CB2 receptors (Homo sapiens, UniProt P34972); construct: expressed in transfected cells; host or cells: HEK293; test: human CB2 radioligand binding assay ([3H]CP 55,940 competition); settings: HEK293 membranes, 0.5 nM [3H]CP 55,940; read-out: human CB2 (Ki)
Response field label takes satisfied when Ki is strictly below 0.2 µM and not satisfied in all other cases.

Recorded results for 10 molecules are shown here.
{"Molecule": "C[C@@H](O)[C@@H](C)Oc1ccc(C(F)(F)F)cc1C(=O)/N=c1\\cc(C(C)(C)C)n(C)n1C[C@H]1CCCO1 [Example 104]", "Group Label": "not satisfied"}
{"Molecule": "Cn1c(C(C)(C)C)c/c(=N\\C(=O)c2cc(C(F)(F)F)ccc2OCC(C)(C)CO)n1C[C@H]1CCCO1 [Example 116]", "Group Label": "not satisfied"}
{"Molecule": "C/C(COc1ccc(C(F)(F)F)cc1C(=O)/N=c1\\cc(C(C)(C)C)n(C)n1C[C@H]1CCCO1)=N\\OC1CCCCO1 (stereo partly drawn) [Example 79]", "Group Label": "not satisfied"}
{"Molecule": "Cn1c(C(C)(C)C)c/c(=N\\C(=O)c2cc(C(F)(F)F)ccc2OCCN2CCNC2=O)n1C[C@H]1CCCO1 [Example 48]", "Group Label": "not satisfied"}
{"Molecule": "CCCCn1/c(=N/C(=O)c2cc(C#N)ccc2OCC(C)(C)O)cc(C(C)(C)C)n1C [Example 108]", "Group Label": "not satisfied"}
{"Molecule": "CC(C)c1c/c(=N\\C(=O)c2cc(C(F)(F)F)ccc2OCC(C)(C)O)n(CC2CCCC2)n1C [Example 114]", "Group Label": "satisfied"}
{"Molecule": "Cn1c(C(C)(C)C)c/c(=N\\C(=O)c2cc(C(F)(F)F)ccc2OCC2CCSCC2)n1C[C@H]1CCCO1 [Example 80]", "Group Label": "satisfied"}
{"Molecule": "Cn1c(C(C)(C)C)c/c(=N\\C(=O)c2cc(C(F)(F)F)ccc2OC[C@@H]2CCC(C)(C)O2)n1C[C@H]1CCCO1 [Example 52]", "Group Label": "satisfied"}
{"Molecule": "Cn1c(C(C)(C)C)c/c(=N\\C(=O)c2cc(C(F)(F)F)ccc2OCC(C)(C)O)n1CC1CCOCC1 [Example 95]", "Group Label": "not satisfied"}
{"Molecule": "CCCn1/c(=N/C(=O)c2cc(C(F)(F)F)ccc2OCC(C)(C)O)cc(C(C)(C)C)n1C [Example 125]", "Group Label": "not satisfied"}

Task item: Bench note: check whether Cn1c(C(C)(C)C)c/c(=N\C(=O)c2cc(C(F)(F)F)ccc2OC[C@@H]2CCC(=O)N2)n1CC1CCC1 [Example 120] shows Ki below 0.2 µM
Reply: satisfied

Task item: Hello, is Ki of the following molecule strictly smaller than 0.2 µM? Cn1c(C(C)(C)C)c/c(=N\C(=O)c2cc(C(F)(F)F)ccc2OC[C@@H]2C=CCO2)n1C[C@H]1CCCO1 [Example 25]
Reply: satisfied

Task item: Dear reviewer, please state whether CCCCn1cc(C(C)(C)C)o/c1=N\C(=O)c1cc(C(F)(F)F)ccc1OC[C@@H]1CCCN1C [Example 76] has Ki strictly beneath 0.2 µM.
Reply: satisfied

Task item: Quick check: Ki of Cn1c(C(C)(C)C)c/c(=N\C(=O)c2cc(C(F)(F)F)ccc2OCc2ccccn2)n1C[C@H]1CCCO1 [Example 38] under 0.2 µM?
Reply: not satisfied

Task item: Could you please tell me whether Ki recorded for Cn1c(C(C)(C)C)c/c(=N\C(=O)c2cc(C(F)(F)F)ccc2OC[C@@H](O)CNC(C)(C)C)n1C[C@H]1CCCO1 [Example 105] is less than 0.2 µM?
Reply: not satisfied

* * *

target: rat CB2 (Rattus norvegicus); assay: rat CB2 cyclase functional assay (HitHunter cAMP); format: cell-based; design: expressed in transfected cells; host or cells: HEK; settings: rat CB2 cyclase (EC50, nM), HEK cells, forskolin 18 μM
# EC50 annotations
// units = nM; emit number, no label

Answered examples (2):
{"Molecule": "Cn1c(C(C)(C)C)c/c(=N\\C(=O)c2cc(C(F)(F)F)ccc2OCCNS(=O)(=O)C2CC2)n1C[C@H]1CCCO1", "Readout Label": "EC50", "Units Text": "nM", "Value": 0.12}
{"Molecule": "CN1CC[C@H]1COc1ccc(C(F)(F)F)cc1C(=O)/N=c1\\oc(C(C)(C)C)cn1C[C@H]1CCCO1", "Readout Label": "EC50", "Units Text": "nM", "Value": 0.42}

Task item: # query: EC50 of entry `Cn1c(C(C)(C)C)c/c(=N\C(=O)c2cc(C#N)ccc2OCC(C)(C)O)n1CC1CCCC1`
Reply: 1.78

Task item: Using the record for `CCOCCOCCOc1ccc(C(F)(F)F)cc1C(=O)/N=c1\cc(C(C)(C)C)n(C)n1C[C@H]1CCCO1` , report its EC50.
Reply: 5.6

* * *

molecular target: Rat CB1 (Rattus norvegicus); construct: expressed in transfected cells; host or cells: HEK; assay: rat CB1 cyclase functional assay (HitHunter cAMP); assay type: cell-based; settings: Rat CB1 cyclase (EC50, nM), HEK cells, forskolin 37 μM
Sequence (P20272 whole entry): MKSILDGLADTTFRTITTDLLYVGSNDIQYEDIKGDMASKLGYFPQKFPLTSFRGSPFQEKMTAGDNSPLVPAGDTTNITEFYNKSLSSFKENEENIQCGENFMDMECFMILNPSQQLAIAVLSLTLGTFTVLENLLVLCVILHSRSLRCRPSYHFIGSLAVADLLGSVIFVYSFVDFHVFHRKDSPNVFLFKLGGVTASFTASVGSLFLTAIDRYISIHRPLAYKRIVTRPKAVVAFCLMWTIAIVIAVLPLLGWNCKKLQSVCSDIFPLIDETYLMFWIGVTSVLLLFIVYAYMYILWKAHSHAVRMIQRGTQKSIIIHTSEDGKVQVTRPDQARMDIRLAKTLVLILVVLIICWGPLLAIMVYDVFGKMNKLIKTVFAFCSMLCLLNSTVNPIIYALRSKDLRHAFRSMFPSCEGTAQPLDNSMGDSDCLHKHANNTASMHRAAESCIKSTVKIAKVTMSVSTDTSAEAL
This listing pairs molecules with measured EC50.

Record excerpt, results attached:
{"Molecule": "CSCCCOc1ccc(C(F)(F)F)cc1C(=O)/N=c1\\cc(C(C)(C)C)n(C)n1C[C@H]1CCCO1", "Value": "> 27000 nM"}
{"Molecule": "Cn1c(C(C)(C)C)c/c(=N\\C(=O)c2cc(C(F)(F)F)ccc2OCC(C)(C)O)n1CCC(F)(F)F", "Value": "3110 nM"}
{"Molecule": "Cn1c(C(C)(C)C)c/c(=N\\C(=O)c2cc(C(F)(F)F)ccc2OC[C@@H]2CCCN2)n1C[C@H]1CCCO1", "Value": "> 27000 nM"}

Could you now consider this next molecule?
Task item: Record request: EC50 value, item `Cn1c(C(C)(C)C)c/c(=N\C(=O)c2cc(C#N)ccc2OCC(C)(C)O)n1CC1CCCC1`
Reply: > 27000 nM

* * *

assay: pharmacokinetic studies in rats; conditions: male, Sprague-Dawley, rat, in vivo, iv, 3 micromole/kg
Listed here are compounds together with their documented clearance.
Kindly answer with a numeric value in mL/min/kg, unit omitted.

Would you please look over these solved cases?
{"Compound": "Cn1c(C(C)(C)C)c/c(=N\\C(=O)c2cc(C(F)(F)F)ccc2OCC(C)(C)O)n1CC1CCC1 [Example 86]", "clearance (mL/min/kg)": 5}
{"Compound": "CCCCn1/c(=N/C(=O)c2cc(C(F)(F)F)ccc2Cl)cc(C(C)(C)C)n1C [D, reference compound]", "clearance (mL/min/kg)": 56.7}

# ---- query compound ----
Task item: # lookup: clearance of Cn1c(C(C)(C)C)c/c(=N\C(=O)c2cc(C#N)ccc2OCC(C)(C)O)n1CC1CCCC1 [Example 127]
Reply: 46.7

* * *

The entries below are paired with their reported Ki.
Molecular target: rat CB2 (Rattus norvegicus, UniProt Q9QZN9)
Sequence (Q9QZN9 1-360): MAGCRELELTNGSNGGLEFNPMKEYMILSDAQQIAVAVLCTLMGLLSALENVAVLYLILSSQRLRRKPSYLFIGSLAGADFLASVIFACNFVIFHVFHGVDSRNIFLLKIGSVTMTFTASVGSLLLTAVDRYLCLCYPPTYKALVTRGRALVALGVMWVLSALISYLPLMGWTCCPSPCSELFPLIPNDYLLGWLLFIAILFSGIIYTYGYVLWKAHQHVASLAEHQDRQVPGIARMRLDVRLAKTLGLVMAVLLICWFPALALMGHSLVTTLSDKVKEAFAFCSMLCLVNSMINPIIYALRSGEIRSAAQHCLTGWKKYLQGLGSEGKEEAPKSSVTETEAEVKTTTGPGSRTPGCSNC
Experiment: rat CB2 radioligand binding assay ([3H]CP 55,940 competition)
Parameters: expressed in transfected cells; host or cells: HEK293
Details: rat CB2 (Ki, nM), HEK293 membranes, 0.5 nM [3H]CP 55,940
# value in nM; strip the unit string

{"Compound": "CC1=NOC(Cn2/c(=N/C(=O)c3cc(C(F)(F)F)ccc3OC[C@@H]3CCCO3)cc(C(C)(C)C)n2C)C1 (stereo partly shown)", "Units Text": "nM", "Value": 63}

Task item: Record lookup: for rat CB2 (Rattus norvegicus, UniProt Q9QZN9), what Ki belongs to `Cn1c(C(C)(C)C)c/c(=N\C(=O)c2cc(C(F)(F)F)ccc2OC[C@H]2CCCO2)n1C[C@H]1CCCO1` ?
Reply: 23

Task item: rat CB2 (Rattus norvegicus, UniProt Q9QZN9) / Ki / `CCOCCOCCOc1ccc(C(F)(F)F)cc1C(=O)/N=c1\cc(C(C)(C)C)n(C)n1C[C@H]1CCCO1` : value?
Reply: 89

Task item: Please provide the recorded Ki for `CSCCCOc1ccc(C(F)(F)F)cc1C(=O)/N=c1\cc(C(C)(C)C)n(C)n1CC1CCC1` , tested on rat CB2 (Rattus norvegicus, UniProt Q9QZN9).
Reply: 15
